Molecular target: Dihydrofolate reductase (Pneumocystis carinii, UniProt P16184)
Sequence (P16184 whole entry): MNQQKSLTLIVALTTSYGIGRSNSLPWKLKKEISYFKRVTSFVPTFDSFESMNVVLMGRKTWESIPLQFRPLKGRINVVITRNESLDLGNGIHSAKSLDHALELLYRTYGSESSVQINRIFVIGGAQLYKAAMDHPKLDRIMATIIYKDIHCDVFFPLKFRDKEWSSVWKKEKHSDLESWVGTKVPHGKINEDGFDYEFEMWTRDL
// boundary case: IC50 equal to 50 nM maps to false (0); strictly smaller maps to true (1)

[
  {
    "MOLECULAR STRING": "COc1ccc(NCc2cnc3nc(N)nc(N)c3c2C)cc1",
    "TEST SYSTEM": "Dihydrofolate reductase (Pneumocystis carinii, UniProt P16184)",
    "LABEL VALUE": "false (0)"
  },
  {
    "MOLECULAR STRING": "COc1ccc(N(C)Cc2cnc3nc(N)nc(N)c3c2C)cc1",
    "TEST SYSTEM": "Dihydrofolate reductase (Pneumocystis carinii, UniProt P16184)",
    "LABEL VALUE": "true (1)"
  },
  {
    "MOLECULAR STRING": "Cc1c(CNc2ccc(Cl)cc2)cnc2nc(N)nc(N)c12",
    "TEST SYSTEM": "Dihydrofolate reductase (Pneumocystis carinii, UniProt P16184)",
    "LABEL VALUE": "false (0)"
  },
  {
    "MOLECULAR STRING": "Cc1c(CN(C)c2ccc(Cl)cc2)cnc2nc(N)nc(N)c12",
    "TEST SYSTEM": "Dihydrofolate reductase (Pneumocystis carinii, UniProt P16184)",
    "LABEL VALUE": "true (1)"
  },
  {
    "MOLECULAR STRING": "Cc1c(CNc2ccccc2Cl)cnc2nc(N)nc(N)c12",
    "TEST SYSTEM": "Dihydrofolate reductase (Pneumocystis carinii, UniProt P16184)",
    "LABEL VALUE": "true (1)"
  }
]

Data credit: ChEMBL document CHEMBL1132261
